Target: T1, recombinant human ROR1-His (Sino Biological, 13968-H08H) (human, UniProt Q01973 30-406)
T1 construct: extracellular domain; Bought protein; also called ROR1-HIS protein; not shown: His tag
T1 sequence (Q01973 30-406): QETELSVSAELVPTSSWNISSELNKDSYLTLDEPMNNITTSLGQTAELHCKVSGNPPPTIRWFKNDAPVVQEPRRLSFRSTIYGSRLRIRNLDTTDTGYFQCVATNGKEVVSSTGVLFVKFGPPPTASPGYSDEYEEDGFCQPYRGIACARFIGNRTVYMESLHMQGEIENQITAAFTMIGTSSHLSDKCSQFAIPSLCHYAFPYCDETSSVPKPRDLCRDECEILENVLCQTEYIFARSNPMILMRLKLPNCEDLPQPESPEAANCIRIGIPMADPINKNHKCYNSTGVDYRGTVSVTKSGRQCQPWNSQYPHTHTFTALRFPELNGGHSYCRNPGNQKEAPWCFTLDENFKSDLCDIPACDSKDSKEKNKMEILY
Assay: BLI (Octet), ROR1-His on Anti-Penta-His or AR2G biosensor, IgG 30 to 0.021 nM, 1:1 fit
Below, each of the binders is paired with its reported kon value.
Give the quantity in M⁻¹ s⁻¹, number only.

binder	resultUnits	kon
anti-ROR1 IgG antibody AB4 (antibody, V domains shown, Full IgG form (human IgG1 constant region, lambda light chain), expressed in CHO-S cells) VH: EVQLLESGGGLVQPGGSLRLSCAASGFTFSSYDMSWVRQAPGKGLEWVSWISPDSGSIYYADSVKGRFTISRDNSKNTLYLQMNSLRAEDTAVYYCARPTGRFDYWGQGTLVTVSS VL: QSVLTQPPSASGTPGQRVTISCSGSSSNIGNNNVNWYQQLPGTAPKLLIYYDNKRPSGVPDRFSGSKSGTSASLAISGLRSEDEADYYCGTWDASLSGYVFGGGTKLTVLG	M⁻¹ s⁻¹	1.81e+06

Turning to the following binder.
Fill in: kon of anti-ROR1 IgG antibody D2B12 (antibody, V domains shown, Full IgG form (human IgG1 constant region, lambda light chain), expressed in CHO-S cells) VH: EVQLLESGGGLVQPGGSLRLSCAASGFTFSNYDMSWVRQAPGKGLEWVSSISPSSGSSIYYADSVKGRFTISRDNSKNTLYLQMNSLRAEDTAVYYCAKAPGWCQAPSCYYDNAMDVWGQGTLVTVSS VL: QSVLTQPPSASGTPGQRVTISCSGSSSNIGNNDVSWYQQLPGTAPKLLIYDDSQRPSGVPDRFSGSKSGTSASLAISGLRSEDEADYYCGAWDDSLSGYVFGGGTKLTVLG is ___
450000

FYI, the data here is from patent US20210069342A1.
